- subject.of.test: UniProt:O75116
- Sequence (O75116 whole entry): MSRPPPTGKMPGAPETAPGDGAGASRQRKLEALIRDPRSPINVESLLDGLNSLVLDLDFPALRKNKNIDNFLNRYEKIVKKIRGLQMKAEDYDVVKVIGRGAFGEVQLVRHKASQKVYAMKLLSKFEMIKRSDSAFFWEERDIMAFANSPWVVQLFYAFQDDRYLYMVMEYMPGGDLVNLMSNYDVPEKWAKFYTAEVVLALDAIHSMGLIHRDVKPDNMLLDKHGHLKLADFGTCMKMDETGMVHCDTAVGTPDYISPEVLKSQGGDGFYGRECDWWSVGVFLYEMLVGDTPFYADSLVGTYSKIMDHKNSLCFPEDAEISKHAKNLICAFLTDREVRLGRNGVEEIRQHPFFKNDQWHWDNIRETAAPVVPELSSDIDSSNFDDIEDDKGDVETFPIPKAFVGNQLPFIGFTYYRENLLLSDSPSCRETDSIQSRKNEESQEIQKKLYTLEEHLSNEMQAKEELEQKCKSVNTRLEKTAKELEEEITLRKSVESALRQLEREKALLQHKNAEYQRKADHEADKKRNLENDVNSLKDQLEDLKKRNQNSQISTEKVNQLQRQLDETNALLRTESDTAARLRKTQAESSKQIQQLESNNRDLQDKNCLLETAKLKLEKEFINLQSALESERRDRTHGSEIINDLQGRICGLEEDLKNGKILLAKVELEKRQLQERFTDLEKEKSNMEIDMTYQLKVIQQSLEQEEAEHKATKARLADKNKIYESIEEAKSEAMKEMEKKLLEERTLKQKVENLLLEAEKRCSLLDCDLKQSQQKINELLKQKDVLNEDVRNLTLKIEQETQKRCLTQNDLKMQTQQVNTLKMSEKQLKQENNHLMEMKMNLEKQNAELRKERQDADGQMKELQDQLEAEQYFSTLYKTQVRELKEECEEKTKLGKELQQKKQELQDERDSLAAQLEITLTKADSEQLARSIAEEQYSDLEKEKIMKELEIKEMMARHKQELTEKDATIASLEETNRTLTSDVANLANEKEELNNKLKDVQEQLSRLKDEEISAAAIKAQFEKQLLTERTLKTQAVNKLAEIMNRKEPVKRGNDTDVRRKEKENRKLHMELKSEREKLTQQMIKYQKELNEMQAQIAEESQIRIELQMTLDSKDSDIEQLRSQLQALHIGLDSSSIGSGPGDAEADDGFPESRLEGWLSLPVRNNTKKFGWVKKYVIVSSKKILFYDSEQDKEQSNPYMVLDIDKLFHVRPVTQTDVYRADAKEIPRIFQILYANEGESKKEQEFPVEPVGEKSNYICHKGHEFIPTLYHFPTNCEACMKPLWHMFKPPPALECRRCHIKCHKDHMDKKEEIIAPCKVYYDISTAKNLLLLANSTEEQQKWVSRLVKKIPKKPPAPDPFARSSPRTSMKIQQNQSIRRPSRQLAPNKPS
pIC50: −log10 of the molar value.
Measured pIC50 of individual entries
readout.kind: pIC50

> print(dat)
                                   compound  test.result
1  CN(C)CCOc1cc(-c2cn[nH]c2)ccc1NC(=O)C1COc2ccccc2O1 (configuration not stated)         8.49
2  O=C(Nc1nc(-c2ccncc2)cs1)C1COc2ccccc2O1 (configuration not stated)         8.14

---

- subject.of.test: CYP1A2 (Homo sapiens, UniProt P05177)
- Sequence (P05177 whole entry): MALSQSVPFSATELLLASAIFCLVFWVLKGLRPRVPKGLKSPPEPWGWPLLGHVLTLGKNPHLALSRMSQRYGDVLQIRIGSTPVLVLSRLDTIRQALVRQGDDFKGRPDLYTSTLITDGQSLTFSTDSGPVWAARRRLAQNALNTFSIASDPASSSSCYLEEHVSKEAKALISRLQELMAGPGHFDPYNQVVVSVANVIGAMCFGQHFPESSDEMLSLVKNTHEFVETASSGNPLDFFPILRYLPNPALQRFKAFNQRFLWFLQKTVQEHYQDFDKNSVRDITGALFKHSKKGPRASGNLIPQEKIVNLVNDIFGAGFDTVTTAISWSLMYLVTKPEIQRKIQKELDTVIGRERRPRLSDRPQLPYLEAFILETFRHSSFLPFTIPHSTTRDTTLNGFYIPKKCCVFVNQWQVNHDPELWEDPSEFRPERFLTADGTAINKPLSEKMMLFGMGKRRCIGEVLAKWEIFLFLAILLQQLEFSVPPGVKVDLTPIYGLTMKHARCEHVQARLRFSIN
- assay.summary: Inhibition of human CYP1A2 at 10 uM
- Type: ADME
t means recorded inhibition at 10 µM is 50% or above; f means it is below 50%.

> print(dat)
                                   molecule  label
1  COc1cc(-c2cn[nH]c2)ccc1NC(=O)C1COc2ccccc2O1 (stereo not given)      t
2  O=C(Nc1nc(-c2ccncc2)cs1)C1COc2ccccc2O1 (stereo not given)      t
3  O=C(Nc1ccc(-c2ccncc2)cc1)C1COc2ccccc2O1 (stereo not given)      f
4  O=C(Nc1ccc(-c2c[nH]cn2)cc1)C1COc2ccccc2O1 (stereo not given)      f
5  CN(C)CCOc1cc(-c2cn[nH]c2)ccc1NC(=O)C1COc2ccccc2O1 (stereo not given)      f
